assay: Intrinsic clearance in human liver microsomes at 1 uM after 5 to 40 mins by LC-MS/MS analysis in presence of NADPH; assay type: ADME; conditions: read-out: CLH
RECORDED_METRIC: microsomal CLint at 1 µM

Cc1ccc(NC(=O)c2cc(-c3cc4cc(C(=O)O)ccc4o3)ccc2N2CCCCC2)cc1 = < 17 µL/min/mg

Output microsomal CLint at 1 µM of `Cc1ccc(NC(=O)c2cc(-n3cc4ccc(C(=O)O)cc4n3)ccc2N2CCCCC2)cc1` < 17 µL/min/mg

###

biological target: Lipoprotein lipase (Bos taurus) (UniProt P11151); test: Induction of bovine LPL stabilization using intralipid as substrate at 12.5 uM preincubated for 10 mins with human recombinant ANGPTL4 followed by substrate addition measured after 45 mins relative to control
Active and inactive are the calls of the source. The rule behind the calls is not given here.
RECORDED_METRIC: Activity

Some molecules with recorded Activity:
Cc1ccc(NC(=O)c2cc(N3CCCCC3)cc(N3C(=O)c4ccc(C(=O)O)cc4C3=O)c2)cc1 = inactive
CC(C)c1ccc(NC(=O)c2cc(N3C(=O)c4ccc(C(=O)O)cc4C3=O)ccc2N2CCCCC2)cc1 = 71%
Cc1ccc(NC(=O)c2cc(Cl)cc(N3C(=O)c4ccc(C(=O)O)cc4C3=O)c2)cc1 = inactive
Cc1ccc(NC(=O)c2ccc(N3CCCCC3)cc2N2C(=O)c3ccc(C(=O)O)cc3C2=O)cc1 = inactive
Cc1ccc(NC(=O)c2cc(N3C(=O)c4ccc(Br)cc4C3=O)ccc2N2CCCCC2)cc1 = inactive
O=C(O)c1ccc2c(c1)C(=O)N(c1ccc(Cl)c(C(=O)NCc3cccnc3)c1)C2=O = inactive

Output Activity of `Cc1ccc(NC(=O)c2cc(-c3cc4cc(C(=O)O)ccc4[nH]3)ccc2N2CCCCC2)cc1` 85.5%

Output Activity of `Cc1ccc(NC(=O)c2cc(Nc3ccc(C)cc3)cc(N3C(=O)c4ccc(C(=O)O)cc4C3=O)c2)cc1` 7%

Output Activity of `COc1ccc(N2C(=O)c3ccc(C(=O)O)cc3C2=O)cc1C(=O)Nc1ccc(C)cc1` inactive

###

Molecular target: Retinoic acid receptor RXR-alpha (Homo sapiens)
Sequence (P19793 whole entry): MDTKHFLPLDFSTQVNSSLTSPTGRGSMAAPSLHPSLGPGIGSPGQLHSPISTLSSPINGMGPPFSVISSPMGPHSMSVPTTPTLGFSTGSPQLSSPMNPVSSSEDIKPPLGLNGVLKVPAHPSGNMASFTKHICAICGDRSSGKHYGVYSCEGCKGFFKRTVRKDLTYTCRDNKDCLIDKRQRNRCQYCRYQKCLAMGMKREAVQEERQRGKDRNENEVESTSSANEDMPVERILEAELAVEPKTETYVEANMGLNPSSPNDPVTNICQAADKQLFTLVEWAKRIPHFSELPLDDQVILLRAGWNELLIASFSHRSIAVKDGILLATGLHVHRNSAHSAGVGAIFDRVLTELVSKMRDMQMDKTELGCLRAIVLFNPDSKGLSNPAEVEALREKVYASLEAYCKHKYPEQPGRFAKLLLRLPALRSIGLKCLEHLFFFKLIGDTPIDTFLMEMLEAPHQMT
Assay: Agonist activity at RXRalpha (unknown origin)
pEC50: −log10 of the molar value.
RECORDED_METRIC: pEC50

State measured pEC50 of the molecule `Cc1ccc(NC(=O)c2cc(-n3cc4ccc(C(=O)O)cc4n3)ccc2N2CCCCC2)cc1` with Retinoic acid receptor RXR-alpha (Homo sapiens). < 4.00

###

experiment: Half life in human liver microsomes at 1 uM; type: ADME
RECORDED_METRIC: half-life at 1 µM

Cc1ccc(NC(=O)c2cc(-n3cc4ccc(C(=O)O)cc4n3)ccc2N2CCCCC2)cc1 = > 1.33 h

Output half-life at 1 µM of `Cc1ccc(NC(=O)c2cc(-c3cc4cc(C(=O)O)ccc4o3)ccc2N2CCCCC2)cc1` > 1.33 h

###

molecular target: Lipoprotein lipase (Bos taurus); test: Induction of bovine LPL stabilization using intralipid as substrate at 6.25 uM preincubated for 10 mins with human recombinant ANGPTL4 followed by substrate addition measured after 45 mins relative to control
Calls of active or inactive are those of the source. The rule behind the calls is not given here.
RECORDED_METRIC: Activity

Cc1ccc(NC(=O)c2cc(-c3nc4ccc(C(=O)O)cc4[nH]3)ccc2N2CCCCC2)cc1 = inactive
Cc1ccc(NC(=O)c2cc(N3C(=O)c4cccc(C(=O)O)c4C3=O)ccc2N2CCCCC2)cc1 = inactive
COCCOCCOc1ccc(N2C(=O)c3ccc(C(=O)O)cc3C2=O)cc1C(=O)Nc1ccc(C)cc1 = inactive
Cc1ccc(NC(=O)c2cc(Cl)cc(N3C(=O)c4ccc(C(=O)O)cc4C3=O)c2)cc1 = inactive
Cc1ccc(NC(=O)c2cccc(N3C(=O)c4ccc(C(=O)O)cc4C3=O)c2N2CCCCC2)cc1 = inactive
Cc1ccc(NC(=O)c2ccc(N3C(=O)c4ccc(C(=O)O)cc4C3=O)cc2N2CCCCC2)cc1 = inactive

Kindly consider the entry below.
Output Activity of `CCN(CC)c1ccc(N2C(=O)c3ccc(C(=O)O)cc3C2=O)cc1C(=O)Nc1ccc(C)cc1` inactive

###

biological target: Lipoprotein lipase (Bos taurus); assay: Induction of bovine LPL stabilization using intralipid as substrate at 25 uM preincubated for 10 mins with human recombinant ANGPTL4 followed by substrate addition measured after 45 mins relative to control
The source made the active and inactive calls. No cut-off for these calls is given here.
RECORDED_METRIC: Activity

Some molecules with recorded Activity:
Cc1ccc(NC(=O)c2cc(N3C(=O)c4ccc(C(=O)O)cc4C3=O)ccc2Br)cc1 = inactive
COCCOCCOc1ccc(N2C(=O)c3ccc(C(=O)O)cc3C2=O)cc1C(=O)Nc1ccc(C)cc1 = inactive
COc1ccc(NC(=O)c2cc(N3C(=O)c4ccc(C(=O)O)cc4C3=O)ccc2N2CCCCC2)cc1 = 43.8%
O=C(O)c1ccc2c(c1)C(=O)N(c1ccc(N3CCCCC3)c(C(=O)Nc3ccc(C(F)(F)F)cc3)c1)C2=O = 81.6%
Cc1ccc(NC(=O)c2cc(N)ccc2N2CCCCC2)cc1 = inactive

Output Activity of `Cc1ccc(NC(=O)c2cc(N3CCCCC3)cc(N3C(=O)c4ccc(C(=O)O)cc4C3=O)c2)cc1` 32.6%

Output Activity of `Cc1ccc(NC(=O)c2cc(Cl)cc(N3C(=O)c4ccc(C(=O)O)cc4C3=O)c2)cc1` inactive

Output Activity of `Cc1ccc(NC(=O)c2cc(N3C(=O)c4ccc(C(=O)O)cc4C3=O)ccc2N2CCCCC2)cc1` 93.8%

###

Molecular target: Lipoprotein lipase (Bos taurus) (UniProt P11151)
Sequence (whole entry): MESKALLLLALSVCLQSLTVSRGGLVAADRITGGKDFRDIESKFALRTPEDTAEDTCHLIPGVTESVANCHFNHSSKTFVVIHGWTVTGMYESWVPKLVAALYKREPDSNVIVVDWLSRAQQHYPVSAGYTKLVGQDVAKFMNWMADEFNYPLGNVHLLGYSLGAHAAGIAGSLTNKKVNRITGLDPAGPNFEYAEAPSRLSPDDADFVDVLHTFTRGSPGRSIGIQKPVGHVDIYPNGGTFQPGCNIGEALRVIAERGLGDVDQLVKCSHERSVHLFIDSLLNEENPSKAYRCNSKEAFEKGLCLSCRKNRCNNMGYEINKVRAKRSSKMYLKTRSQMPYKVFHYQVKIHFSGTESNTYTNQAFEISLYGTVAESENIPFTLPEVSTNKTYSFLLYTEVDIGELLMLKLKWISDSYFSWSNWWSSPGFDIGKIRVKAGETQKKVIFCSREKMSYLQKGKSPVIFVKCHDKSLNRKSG
Assay: Induction of bovine LPL stabilization using intralipid as substrate at 12.5 uM preincubated for 10 mins with human recombinant ANGPTL4 followed by substrate addition measured after 45 mins relative to control
The source made the active and inactive calls. The rule behind the calls is not given here.
RECORDED_METRIC: Activity

Some compounds with recorded Activity:
Cc1ccc(NC(=O)c2cc(NC(=O)c3ccc(C(=O)O)cc3C(=O)O)ccc2N2CCCCC2)cc1 = inactive
O=C(O)c1ccc2c(c1)C(=O)N(c1ccc(N3CCCCC3)c(C(=O)Nc3ccc(C(F)(F)F)cc3)c1)C2=O = 54.6%
Cc1ccc(NC(=O)c2cc(-c3cc4cc(C(=O)O)ccc4o3)ccc2N2CCCCC2)cc1 = 76%
Cc1ccc(NC(=O)c2cc(N3C(=O)c4ccccc4C3=O)ccc2N2CCCCC2)cc1 = inactive
Cc1ccc(NC(=O)c2cc(N3C(=O)c4ccc(C(=O)O)cc4C3=O)ccc2Cl)cc1 = inactive
Cc1ccc(NC(=O)c2cc(-n3cc4ccc(C(=O)O)cc4n3)ccc2N2CCCCC2)cc1 = 75.6%

Output Activity of `CCCNc1ccc(N2C(=O)c3ccc(C(=O)O)cc3C2=O)cc1C(=O)Nc1ccc(C)cc1` 6.2%

Output Activity of `O=C(O)c1ccc2c(c1)C(=O)N(c1ccc(N3CCCCC3)c(C(=O)NCc3cccnc3)c1)C2=O` inactive

Output Activity of `Cc1ccc(NC(=O)c2cc(N3C(=O)c4ccc(N)cc4C3=O)ccc2N2CCCCC2)cc1` inactive

Output Activity of `Cc1ccc(NC(=O)c2cc(N3CCCCC3)ccc2N2C(=O)c3ccc(C(=O)O)cc3C2=O)cc1` 55.1%

Output Activity of `CCN(CC)c1ccc(N2C(=O)c3ccc(C(=O)O)cc3C2=O)cc1C(=O)Nc1ccc(C)cc1` inactive

Output Activity of `Cc1ccc(NC(=O)c2cc(N3C(=O)c4ccc(C(N)=O)cc4C3=O)ccc2N2CCCCC2)cc1` inactive

Output Activity of `Cc1ccc(NC(=O)c2cc(N3C(=O)c4ccc(C(=O)O)cc4C3=O)ccc2Nc2ccccc2)cc1` 80.1%

Output Activity of `CCc1ccc(NC(=O)c2cc(N3C(=O)c4ccc(C(=O)O)cc4C3=O)ccc2Nc2ccccc2)cc1` 60.3%

Output Activity of `O=C(O)c1ccc2c(c1)C(=O)N(c1ccc(N3CCCCC3)c(C(=O)Nc3ccccc3)c1)C2=O` inactive

Output Activity of `O=C(O)c1ccc2c(c1)C(=O)N(c1ccc(N3CCCCC3)c(C(=O)NCc3ccccc3)c1)C2=O` inactive

Output Activity of `Cc1ccc(NC(=O)c2cc(N3C(=O)c4ccc(C(=O)O)cc4C3=O)ccc2Br)cc1` inactive

Output Activity of `Cc1ccc(NC(=O)c2cc(-n3cc4cc(C(=O)O)ccc4n3)ccc2N2CCCCC2)cc1` 90.6%

Output Activity of `Cc1ccc(NC(=O)c2cc(-n3cc4ccccc4n3)ccc2N2CCCCC2)cc1` inactive

Output Activity of `Cc1ccc(NC(=O)c2cc(N3C(=O)c4ccc(C(=O)O)cc4C3=O)ccc2N2CCN(C)CC2)cc1` inactive

Output Activity of `Cc1ccc(NC(=O)c2cc(NC(=O)c3cc(C(=O)O)ccc3C(=O)O)ccc2N2CCCCC2)cc1` inactive

Output Activity of `Cc1ccc(NC(=O)c2cc(N3C(=O)c4ccc(C#N)cc4C3=O)ccc2N2CCCCC2)cc1` inactive

Output Activity of `Cc1ccc(NC(=O)c2ccc(N3C(=O)c4ccc(C(=O)O)cc4C3=O)cc2N2CCCCC2)cc1` inactive

Attribution: ChEMBL document CHEMBL3745639
